For each entry below, report its Emax value.
# system under test: κ-opioid receptor (Homo sapiens, UniProt P41145)
# Sequence (P41145 whole entry): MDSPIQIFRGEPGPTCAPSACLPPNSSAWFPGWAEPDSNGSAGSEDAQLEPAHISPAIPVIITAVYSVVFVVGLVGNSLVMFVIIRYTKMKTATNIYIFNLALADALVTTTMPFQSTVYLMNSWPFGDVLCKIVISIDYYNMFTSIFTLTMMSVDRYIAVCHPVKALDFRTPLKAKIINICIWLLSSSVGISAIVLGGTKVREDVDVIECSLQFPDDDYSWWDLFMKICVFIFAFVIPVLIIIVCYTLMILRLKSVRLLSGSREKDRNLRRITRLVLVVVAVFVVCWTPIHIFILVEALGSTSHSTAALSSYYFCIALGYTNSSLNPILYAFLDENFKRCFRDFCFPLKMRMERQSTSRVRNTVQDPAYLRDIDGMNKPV
# experiment description: κ-opioid receptor GTPγS functional assay, U2OS cells
# Assay type: biochemical
# Parameters: expressed in transfected cells; host or cells: U-2 OS
# measurement parameters: U2OS cells
Answer format: number, then unit.

Record Emax per entry; entries follow.
1. C[C@H]1[C@H]2Cc3ccc(O)cc3[C@]1(CCN1CCC(N(C3CC3)S(=O)(=O)c3ccc(Cl)cc3)CC1)CCN2C
2. C[C@H]1[C@H]2Cc3ccc(O)cc3[C@]1(CCNS(=O)(=O)C1CC1)CCN2CC1CC1
3. C[C@H]1[C@H]2Cc3ccc(O)cc3[C@]1(CCOc1cncc(C(=O)O)c1)CCN2C
4. COc1ccc2c(c1)[C@]1(CCOCc3ccccc3)CCN(CC3CC3)[C@H](C2)[C@@H]1C
5. C[C@H]1[C@H]2Cc3ccc(O)cc3[C@]1(CC(=O)NCCc1ccc(S(N)(=O)=O)cc1)CCN2C

60%
107%
99%
96.3%
35.7%

Record Emax per entry; entries follow.
1. COc1ccc2c(c1)[C@]1(CCN[C@@H](C)C(=O)O)CCN(CC3CC3)[C@H](C2)[C@@H]1C
2. COc1ccc2c(c1)[C@]1(CCNC(=O)[C@@H]3CCCN3C(C)=O)CCN(CC3CC3)[C@H](C2)[C@@H]1C

["115%", "100%"]

====

# system under test: μ-opioid receptor (Homo sapiens)
# Sequence (P35372 whole entry, species assumed): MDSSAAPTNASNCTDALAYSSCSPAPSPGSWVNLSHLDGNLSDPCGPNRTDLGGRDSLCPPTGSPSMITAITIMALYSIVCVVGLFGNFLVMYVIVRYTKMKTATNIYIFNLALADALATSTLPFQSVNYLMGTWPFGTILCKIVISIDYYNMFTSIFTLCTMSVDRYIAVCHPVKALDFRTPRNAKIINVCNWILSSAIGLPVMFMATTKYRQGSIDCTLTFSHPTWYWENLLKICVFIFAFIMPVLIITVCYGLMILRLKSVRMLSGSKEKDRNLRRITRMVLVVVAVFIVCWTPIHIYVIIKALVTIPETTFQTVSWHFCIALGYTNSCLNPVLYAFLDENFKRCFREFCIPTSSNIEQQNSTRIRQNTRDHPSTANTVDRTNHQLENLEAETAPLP
# experiment description: biochemical
# Design: purchased Perkin Elmer, Shelton, Conn; host or cells: HEK-293 or CHO
# measurement parameters: HEK-293 or CHO cells; relative to DAMGO; read-out: GTPγS μ Emax
Labelling: Emax reported below 60% becomes 1; at or above becomes -1.

Record excerpt, results attached:
INSERT INTO results (molecule, class) VALUES
  ('C[C@H]1[C@H]2Cc3ccc(O)cc3[C@]1(CCNC(=O)NC(c1ccccc1)c1ccccc1)CCN2C [Compound 73]', -1),
  ('C[C@H]1[C@H]2Cc3ccc(O)cc3[C@]1(CCNC(=O)NS(=O)(=O)c1ccc(F)cc1)CCN2CC1CC1 [Compound 19]', 1),
  ('C[C@@H]1[C@@H]2Cc3ccc(O)cc3[C@@]1(CCN1CCN(C(c3ccc(F)cc3)c3ccc(F)cc3)CC1)CCN2C [Compound 15]', -1),
  ('CC(C)[C@H](NCC[C@@]12CCN(CC3CC3)[C@@H](Cc3ccc(O)cc31)[C@H]2C)C(=O)O [Compound 42]', 1),
  ('COc1ccc2c(c1)[C@]1(CCOCc3ccccc3)CCN(CC3CC3)[C@H](C2)[C@@H]1C [Compound 45]', 1),
  ('C[C@H]1[C@H]2Cc3ccc(O)cc3[C@]1(CCNC(=O)Nc1ccccc1)CCN2C [Compound 68]', -1);

--- query ---
Criterion: Emax strictly below 60%. Is it met by C[C@H]1[C@H]2Cc3ccc(O)cc3C1(CCN[C@H]1C[C@H]3CCC[C@@H](C1)N3CC[C@@H]1CC[C@H]3C[C@@H]1C3(C)C)CCN2C [Compound 64] ?
1

====

For each entry below, report its log10 of EC50 value.
# system under test: κ-opioid receptor (Homo sapiens)
# experiment description: κ-opioid receptor [35S]GTPγS functional assay, HEK-293 or CHO cells
# Type: biochemical
# Set-up: expressed in transfected cells; host or cells: HEK-293
# measurement parameters: HEK-293 or CHO cells; read-out: GTPγS κ EC50
// do not treat as linear: log10 of EC50, unit nM

INSERT INTO results (smiles_input, assay_endpoint, assay_value) VALUES
  ('C[C@H]1[C@H]2Cc3ccc(O)cc3[C@]1(CCNS(C)(=O)=O)CCN2C', 'log10 of EC50', 2.22);

Record log10 of EC50 per entry; entries follow.
1. COC(=O)c1ccc(CC(=O)NCC[C@]23CCN(CC4CC4)[C@H](Cc4ccc(OC)cc42)[C@@H]3C)cc1
2. COC(=O)[C@H](C)NCC[C@]12CCN(CC3CC3)[C@H](Cc3ccc(OC)cc31)[C@@H]2C
3. CC(C)C[C@H](NCCCC[C@]12CCN(CC3CC3)[C@H](Cc3ccc(O)cc31)[C@@H]2C)C(=O)O
4. C[C@H]1[C@H]2Cc3ccc(O)cc3[C@]1(CCCC(N)=O)CCN2CC1CCC1

1: 2.41; 2: 2.46; 3: 0.97; 4: 0.88

Record log10 of EC50 per entry; entries follow.
1. COc1ccc2c(c1)[C@]1(CCNCC(=O)O)CCN(CC3CC3)[C@H](C2)[C@@H]1C
2. C[C@H]1[C@H]2Cc3ccc(O)cc3[C@]1(CCCCN[C@@H](CCCCN)C(=O)O)CCN2CC1CC1

3.30
0.37
